The measured values listed here are drawn from PubChem BioAssay (NCI).

# METHOD DESCRIPTION: NCI Yeast Anticancer Drug Screen. Data for the rad50 strain (AID 155);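 also: 0% = growth of vehicle-only cultures of the same strain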
# SETTINGS: S. cerevisiae rad50 strain growth inhibition; at 50.0 µM; hits give high values
About 79,000 compounds went through this panel and 15% of them were active in at least one assay; those are over-represented in the sample as a whole.
PROPERTY: growth inhibition (%)
Entry rule: numbers only, all in %.

Answered cases to consult:
{"columns": ["COMPOUND", "RESULT UNIT", "growth inhibition"],
 "data": [
  ["Nc1ncnc2c1nc(N)n2C1OC(CO)C(O)C1O (stereo not drawn)", "%", -2.6],
  ["CC1(C(N)=O)CCC(C(=O)O)C1(C)C (stereo not drawn)", "%", 10.3],
  ["Nc1ncnc2[nH]ncc12", "%", -0.9],
  ["CCCNc1ccc(C2=NCCCN2)cc1", "%", 0.55],
  ["COc1ccc(-c2cc(-c3cc(-c4ccc(OC)cc4)nc(N)n3)nc(N)n2)cc1", "%", -13]
]}

Q: Value lookup for growth inhibition; key = `O=C(NCCNC(=O)c1ccc(Cl)cc1Cl)c1ccc(Cl)cc1Cl`
Result: -9.25

Q: Value lookup for growth inhibition; key = `O=[N+]([O-])c1ccc(CO)cc1`
Result: 0.15

Q: Value lookup for growth inhibition; key = `CCOC(=O)C/C(C)=N\O`
Result: 4.05

Q: Value lookup for growth inhibition; key = `Cc1cc(N)ccc1-c1ccc(N)cc1C`
Result: -3

Q: Value lookup for growth inhibition; key = `COC(=O)c1[nH]c(=O)c(C#N)c(C(=O)OC)c1C(=O)c1ccccc1`
Result: 5

Q: Value lookup for growth inhibition; key = `CCOC(=O)c1cc2cccc(OC)c2oc1=O`
Result: 6.15

Q: Value lookup for growth inhibition; key = C#C[C@H]1CCCCCC1O (stereo partly drawn)
Result: 13.1

Q: Value lookup for growth inhibition; key = `C[N+](C)(C)C(=O)c1ccccc1`
Result: 21.6
